This collection of values is drawn from ChEMBL document CHEMBL5252546.

Assay: Cmax in female rat at 8 mg/kg,iv measured upto 24 hrs
Format: ADME, organism-based
Parameters: time < 24 hrs, dose 8 mg/kg, route iv
Details: in vivo
readout_type: Cmax (µg/mL)
Write the number in µg/mL without appending the unit.

The reported Cmax of the compound `CC(=O)O[C@@]12CO[C@@H]1C[C@H](O)[C@@]1(C)C(=O)[C@H](O)C3=C(C)[C@@H](OC(=O)[C@H](OC(=O)CCC(=O)NCCCC[C@H](NC(=O)CC[C@@H](NC(=O)[C@H](C)NC(=O)/C=C/c4ccc(F)cc4Cl)C(N)=O)C(=O)O)[C@@H](NC(=O)OC(C)(C)C)c4ccccc4)C[C@@](O)([C@@H](OC(=O)c4ccccc4)[C@H]21)C3(C)C` was 62.5

====

Assay: Half life in female rat at 4 mg/kg,iv measured upto 24 hrs
Assay type: ADME, organism-based
Details: in vivo
readout_type: half-life (min)
Write the number in min without appending the unit.

The reported half-life of the compound `CC(=O)O[C@@]12CO[C@@H]1C[C@H](O)[C@@]1(C)C(=O)[C@H](O)C3=C(C)[C@@H](OC(=O)[C@H](OC(=O)CCC(=O)NCCCC[C@H](NC(=O)CC[C@@H](NC(=O)[C@H](C)NC(=O)/C=C/c4ccc(F)cc4Cl)C(N)=O)C(=O)O)[C@@H](NC(=O)OC(C)(C)C)c4ccccc4)C[C@@](O)([C@@H](OC(=O)c4ccccc4)[C@H]21)C3(C)C` was 10.4

====

Test: MRT (0 to infinity) in rat at 4 mg/kg,iv measured upto 24 hrs
Type: ADME, organism-based
Details: in vivo
readout_type: MRT inf (min)
Write the number in min without appending the unit.

The reported MRT inf of the compound `CC(=O)O[C@@]12CO[C@@H]1C[C@H](O)[C@@]1(C)C(=O)[C@H](O)C3=C(C)[C@@H](OC(=O)[C@H](OC(=O)CCC(=O)NCCCC[C@H](NC(=O)CC[C@@H](NC(=O)[C@H](C)NC(=O)/C=C/c4ccc(F)cc4Cl)C(N)=O)C(=O)O)[C@@H](NC(=O)OC(C)(C)C)c4ccccc4)C[C@@](O)([C@@H](OC(=O)c4ccccc4)[C@H]21)C3(C)C` was 19.1

====

Assay: Half life in female Beagle dog at 2 mg/kg,iv measured upto 24 hrs
Format: ADME, organism-based, Canis lupus familiaris
Conditions: in vivo
readout_type: half-life (min)
Write the number in min without appending the unit.

The reported half-life of the molecule `CC(=O)O[C@@]12CO[C@@H]1C[C@H](O)[C@@]1(C)C(=O)[C@H](O)C3=C(C)[C@@H](OC(=O)[C@H](OC(=O)CCC(=O)NCCCC[C@H](NC(=O)CC[C@@H](NC(=O)[C@H](C)NC(=O)/C=C/c4ccc(F)cc4Cl)C(N)=O)C(=O)O)[C@@H](NC(=O)OC(C)(C)C)c4ccccc4)C[C@@](O)([C@@H](OC(=O)c4ccccc4)[C@H]21)C3(C)C` was 30.9

====

Assay: MRT (0 to infinity) in male rat at 2 mg/kg,iv measured upto 24 hrs
Format: ADME, organism-based
Conditions: in vivo
readout_type: MRT inf (min)
Write the number in min without appending the unit.

The reported MRT inf of the molecule `CC(=O)O[C@@]12CO[C@@H]1C[C@H](O)[C@@]1(C)C(=O)[C@H](O)C3=C(C)[C@@H](OC(=O)[C@H](OC(=O)CCC(=O)NCCCC[C@H](NC(=O)CC[C@@H](NC(=O)[C@H](C)NC(=O)/C=C/c4ccc(F)cc4Cl)C(N)=O)C(=O)O)[C@@H](NC(=O)OC(C)(C)C)c4ccccc4)C[C@@](O)([C@@H](OC(=O)c4ccccc4)[C@H]21)C3(C)C` was 13.9

====

Experiment: Half life in female rat at 2 mg/kg,iv measured upto 24 hrs
Type: ADME, organism-based
Conditions: in vivo
readout_type: half-life (min)
Write the number in min without appending the unit.

The reported half-life of the molecule `CC(=O)O[C@@]12CO[C@@H]1C[C@H](O)[C@@]1(C)C(=O)[C@H](O)C3=C(C)[C@@H](OC(=O)[C@H](OC(=O)CCC(=O)NCCCC[C@H](NC(=O)CC[C@@H](NC(=O)[C@H](C)NC(=O)/C=C/c4ccc(F)cc4Cl)C(N)=O)C(=O)O)[C@@H](NC(=O)OC(C)(C)C)c4ccccc4)C[C@@](O)([C@@H](OC(=O)c4ccccc4)[C@H]21)C3(C)C` was 6.6

====

Experiment: AUC (0-t) in Beagle dog at 4 mg/kg,iv measured upto 24 hrs
Format: ADME, organism-based, Canis lupus familiaris
Set-up: dose 4 mg/kg, time < 24 hrs, route iv
Conditions: in vivo
readout_type: AUC(0-t) at 24 h (ng·h/mL)
Write the number in ng·h/mL without appending the unit.

The reported AUC(0-t) at 24 h of the molecule `CC(=O)O[C@@]12CO[C@@H]1C[C@H](O)[C@@]1(C)C(=O)[C@H](O)C3=C(C)[C@@H](OC(=O)[C@H](OC(=O)CCC(=O)NCCCC[C@H](NC(=O)CC[C@@H](NC(=O)[C@H](C)NC(=O)/C=C/c4ccc(F)cc4Cl)C(N)=O)C(=O)O)[C@@H](NC(=O)OC(C)(C)C)c4ccccc4)C[C@@](O)([C@@H](OC(=O)c4ccccc4)[C@H]21)C3(C)C` was 17200

====

Assay: in vivo
Details: mouse, plasma, iv, 5.7 mg/kg
Description: AUC (0-t) in mouse plasma implanted with mouse 4T1 cells at 5.7 mg/kg,iv measured upto 72 hrs
readout_type: AUC(0-t) at 72 h (µM·h)
Write the number in µM·h without appending the unit.

The reported AUC(0-t) at 72 h of the compound CC(=O)O[C@@]12CO[C@@H]1C[C@H](O)[C@@]1(C)C(=O)[C@H](O)C3=C(C)[C@@H](OC(=O)[C@H](O)[C@@H](NC(=O)OC(C)(C)C)c4ccccc4)C[C@@](O)([C@@H](OC(=O)c4ccccc4)[C@H]21)C3(C)C [DOCETAXEL ANHYDROUS] was 2.24

====

Assay: Half life in male rat at 2 mg/kg,iv measured upto 24 hrs
Assay type: ADME, organism-based
Details: in vivo
readout_type: half-life (min)
Write the number in min without appending the unit.

The reported half-life of the compound `CC(=O)O[C@@]12CO[C@@H]1C[C@H](O)[C@@]1(C)C(=O)[C@H](O)C3=C(C)[C@@H](OC(=O)[C@H](OC(=O)CCC(=O)NCCCC[C@H](NC(=O)CC[C@@H](NC(=O)[C@H](C)NC(=O)/C=C/c4ccc(F)cc4Cl)C(N)=O)C(=O)O)[C@@H](NC(=O)OC(C)(C)C)c4ccccc4)C[C@@](O)([C@@H](OC(=O)c4ccccc4)[C@H]21)C3(C)C` was 9

====

Assay: MRT (0 to infinity) in Beagle dog at 1 mg/kg,iv measured upto 24 hrs
Format: ADME, organism-based, Canis lupus familiaris
Details: in vivo
readout_type: MRT inf (min)
Write the number in min without appending the unit.

The reported MRT inf of the compound `CC(=O)O[C@@]12CO[C@@H]1C[C@H](O)[C@@]1(C)C(=O)[C@H](O)C3=C(C)[C@@H](OC(=O)[C@H](OC(=O)CCC(=O)NCCCC[C@H](NC(=O)CC[C@@H](NC(=O)[C@H](C)NC(=O)/C=C/c4ccc(F)cc4Cl)C(N)=O)C(=O)O)[C@@H](NC(=O)OC(C)(C)C)c4ccccc4)C[C@@](O)([C@@H](OC(=O)c4ccccc4)[C@H]21)C3(C)C` was 15.2

====

Assay: AUC (0-infinity) in male rat at 2 mg/kg,iv measured upto 24 hrs
Type: ADME, organism-based
Design: dose 2 mg/kg, time < 24 hrs, route iv
Details: in vivo
readout_type: AUC(0-inf) (ng·h/mL)
Write the number in ng·h/mL without appending the unit.

The reported AUC(0-inf) of the molecule `CC(=O)O[C@@]12CO[C@@H]1C[C@H](O)[C@@]1(C)C(=O)[C@H](O)C3=C(C)[C@@H](OC(=O)[C@H](OC(=O)CCC(=O)NCCCC[C@H](NC(=O)CC[C@@H](NC(=O)[C@H](C)NC(=O)/C=C/c4ccc(F)cc4Cl)C(N)=O)C(=O)O)[C@@H](NC(=O)OC(C)(C)C)c4ccccc4)C[C@@](O)([C@@H](OC(=O)c4ccccc4)[C@H]21)C3(C)C` was 6120

====

Assay: MRT (0 to infinity) in rat at 2 mg/kg,iv measured upto 24 hrs
Type: ADME, organism-based
Details: in vivo
readout_type: MRT inf (min)
Write the number in min without appending the unit.

The reported MRT inf of the molecule `CC(=O)O[C@@]12CO[C@@H]1C[C@H](O)[C@@]1(C)C(=O)[C@H](O)C3=C(C)[C@@H](OC(=O)[C@H](OC(=O)CCC(=O)NCCCC[C@H](NC(=O)CC[C@@H](NC(=O)[C@H](C)NC(=O)/C=C/c4ccc(F)cc4Cl)C(N)=O)C(=O)O)[C@@H](NC(=O)OC(C)(C)C)c4ccccc4)C[C@@](O)([C@@H](OC(=O)c4ccccc4)[C@H]21)C3(C)C` was 11.3
